The reported measurements were obtained from PubChem BioAssay.

Answer each item with its documented z-score.
Assay: JC-1 mitochondrial signal, unstimulated MM1S myeloma – cell-based, JC-1 fluorescence, 24 h, 100 nL compound, profiling panel (AID 1170); note: test concentration not given here
Details: MM1S mitochondrial potential, higher = more signal
Give your answer as a number; write no unit.

INPUT: Can you share its z-score? I mean this molecule: [N-]=[N+]=NCc1ccccc1[C@H]1OC(c2ccc(OCCCO)cc2)=N[C@@]1(Cc1ccccc1N=[N+]=[N-])C(=O)N1CCCCC1
OUTPUT: -1.76

INPUT: Then what about the molecule CCCCC(=C=CC[C@H](O)c1ccccc1OCCO)C[C@H](O)c1ccccn1 ?
OUTPUT: -1.14

INPUT: And what about the molecule COc1ccc([Si](C)(C)[C@H]2[C@H](CCO)O[C@@]3(C(=O)N(Cc4cccc(N5CCOC5=O)c4)c4ccccc43)[C@@H]2C)cc1 ?
OUTPUT: -1.79

INPUT: For CN(C)C(=O)[C@@]1(CCS(=O)(=O)c2ccccc2)N=C(c2ccc(OCCCO)cc2)O[C@H]1c1ccccc1CN=[N+]=[N-] then?
OUTPUT: -1.31

INPUT: Request: COc1cc2c(cc1OC)CN(C(=O)[C@@H]1[C@H]3C(=O)O[C@H](c4ccccc4)[C@H](c4ccccc4)N3[C@H](c3ccc(OCCO)cc3)[C@@]13C(=O)Nc1ccc(C#CCCO)cc13)CC2
OUTPUT: -1.04

INPUT: Please answer likewise for O=C(N1CCOCC1)[C@@]1(CCS(=O)(=O)c2ccccc2)COC(c2ccc(OCCCO)cc2)=N1
OUTPUT: -0.659

INPUT: Try this molecule too: COCCOC(=O)N1C(=O)[C@@]2(c3cc(C#Cc4ccc(OC)cc4)ccc31)[C@H](c1ccc(OCCO)cc1)N1[C@H](c3ccccc3)[C@H](c3ccccc3)OC(=O)[C@H]1[C@@H]2C(N)=O
OUTPUT: -1.11

====

So I've got a bunch of molecules here, and I need their z-score values.
Test: viability profiling in RPMI8226 myeloma cells – cell-based, resazurin fluorescence, basal, 24 h, PK04 Diversity Set, profiling panel (AID 1180);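 note: RPMI8826 multiple myeloma cell line at 5000 cells per well; test concentration not given here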
Conditions: higher = more signal
Answer with a bare number; do not write a unit.

INPUT: Which z-score value belongs to Cc1ccccc1C(O)C1C=CC2C(=O)N(Cc3ccccc3)C(=O)C2N1n1cnnc1 (stereo not given) ?
OUTPUT: -0.408

INPUT: Also, CN(C)CCCC[C@@H]1NC(=O)[C@H]2C[C@@H](C(=O)NCCCCCCNC(=O)CS)[C@@H](c3ccc(O)cc3)N2C1=O please.
OUTPUT: -0.892

INPUT: Next: CCOC(=O)C[C@H]1[C@H](OC(=O)Cc2ccc3c(c2)OCO3)[C@@H](NC(=O)c2ccccc2)c2cc(OCCCO)ccc2N1C(=O)c1ccccc1
OUTPUT: -0.19

INPUT: Follow-up item: CCOC(=O)C1=CC[C@@H](c2ccc(N(CC)CC)cc2)N(S(=O)(=O)c2ccc(C)cc2)[C@H]1c1ccc([N+](=O)[O-])cc1
OUTPUT: -1.06

INPUT: Do the same for CC1CC/C=C\[C@H]2OC34C=CCN(c5ccc(Cl)cc5)C(=O)[C@H]3N(C(CO)C(C)C)C(=O)[C@]4(C)C2C(=O)O1 (stereo not given in full) please
OUTPUT: 0.399

INPUT: Lookup O=[N+]([O-])c1ccc(C[n+]2ccc(-c3ccc(CO)cc3)cc2)o1
OUTPUT: -0.904

INPUT: Input C=CCC(OC(C)=O)[C@@H]1[C@@H](N(Cc2ccc(-c3ccccc3)cc2)C(=O)c2cccc3ccccc23)c2cc(OCCCO)ccc2N1C(=O)c1ccc2ccccc2n1 (stereo not given in full)
OUTPUT: 0.131

INPUT: Request: O=C1C2C=CC(C(O)c3cccc4ccccc34)N(Nc3ccccc3)C2C(=O)N1c1ccccc1 (stereo not given)
OUTPUT: -0.0011

INPUT: Note, next up: COc1cc2c(cc1OC)CN(C(=O)[C@@H]1[C@H]3C(=O)O[C@H](c4ccccc4)[C@H](c4ccccc4)N3[C@H](c3ccc(OCCO)cc3)[C@@]13C(=O)Nc1ccc(C#CCCO)cc13)CC2
OUTPUT: 0.768

INPUT: Item: C=C(/C(=C/C[C@@H](OC(=O)c1ccncc1)c1cccc(OCCO)c1)c1cc(C(=O)OC)ccc1OC)C(C)C
OUTPUT: 0.301

INPUT: And then CC(C)NC(=O)[C@@H]1c2ccccc2C(=O)N(Cc2cc(C(F)(F)F)cc(C(F)(F)F)c2)[C@H]1c1ccc(CO)cc1 , what is it?
OUTPUT: 0.25

INPUT: Same again, this time with O=C(N1CCOCC1)[C@@]1(CCS(=O)(=O)c2ccccc2)COC(c2ccc(OCCCO)cc2)=N1
OUTPUT: -0.387

INPUT: Thanks! And COC(=O)[C@@]1(Cc2ccc(OC)cc2)[C@H]2c3cc(C(=O)N4CCCC4)n(CCc4ccc(O)c(OC)c4)c3C[C@H]2CN1C(=O)c1ccccc1 ?
OUTPUT: -0.125

INPUT: Ok, now Cc1ccc(C(C)CC(O)C2C=CC3C(=O)N(Cc4ccccc4)C(=O)C3N2n2cnnc2)o1 (stereo not given)
OUTPUT: -0.841

INPUT: Repeat for the following molecule: COC(=O)[C@@]1(Cc2ccccc2)[C@H]2c3cc(C(=O)N4CCCC4)n(Cc4ccc(OC(F)(F)F)cc4)c3C[C@H]2CN1C(=O)c1ccccc1
OUTPUT: -2.62
